- system-under-test: GSPT1 (Homo sapiens, UniProt P15170+Q96SW2)
- Construct: host or cells: HEK293 LgBiT cell line
- Sequence (P15170 whole entry): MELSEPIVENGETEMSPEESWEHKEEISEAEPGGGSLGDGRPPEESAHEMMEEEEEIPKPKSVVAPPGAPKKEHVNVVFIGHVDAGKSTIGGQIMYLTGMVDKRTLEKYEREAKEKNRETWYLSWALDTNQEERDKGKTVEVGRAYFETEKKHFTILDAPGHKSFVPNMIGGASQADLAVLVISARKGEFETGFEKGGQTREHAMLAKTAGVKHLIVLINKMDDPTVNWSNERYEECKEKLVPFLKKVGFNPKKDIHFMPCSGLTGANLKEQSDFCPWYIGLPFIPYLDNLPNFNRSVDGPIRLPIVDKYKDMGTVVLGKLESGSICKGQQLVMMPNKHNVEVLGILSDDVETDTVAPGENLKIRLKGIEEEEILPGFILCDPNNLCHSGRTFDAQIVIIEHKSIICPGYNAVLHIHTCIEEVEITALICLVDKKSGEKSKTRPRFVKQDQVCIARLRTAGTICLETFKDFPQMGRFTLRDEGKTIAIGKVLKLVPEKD
- Sequence (Q96SW2 whole entry): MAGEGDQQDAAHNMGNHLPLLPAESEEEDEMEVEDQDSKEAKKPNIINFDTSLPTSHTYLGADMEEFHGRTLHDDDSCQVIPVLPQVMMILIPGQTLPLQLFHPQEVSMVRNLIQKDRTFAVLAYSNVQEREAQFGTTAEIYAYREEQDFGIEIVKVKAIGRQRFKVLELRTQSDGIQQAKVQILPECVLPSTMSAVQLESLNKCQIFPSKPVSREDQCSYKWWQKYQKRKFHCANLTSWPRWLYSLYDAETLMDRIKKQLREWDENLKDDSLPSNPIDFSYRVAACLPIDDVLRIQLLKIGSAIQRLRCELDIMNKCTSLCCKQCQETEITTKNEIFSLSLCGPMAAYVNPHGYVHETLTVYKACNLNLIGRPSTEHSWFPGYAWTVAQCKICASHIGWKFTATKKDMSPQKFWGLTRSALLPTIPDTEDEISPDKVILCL
- Sequence (Q16531 whole entry partner): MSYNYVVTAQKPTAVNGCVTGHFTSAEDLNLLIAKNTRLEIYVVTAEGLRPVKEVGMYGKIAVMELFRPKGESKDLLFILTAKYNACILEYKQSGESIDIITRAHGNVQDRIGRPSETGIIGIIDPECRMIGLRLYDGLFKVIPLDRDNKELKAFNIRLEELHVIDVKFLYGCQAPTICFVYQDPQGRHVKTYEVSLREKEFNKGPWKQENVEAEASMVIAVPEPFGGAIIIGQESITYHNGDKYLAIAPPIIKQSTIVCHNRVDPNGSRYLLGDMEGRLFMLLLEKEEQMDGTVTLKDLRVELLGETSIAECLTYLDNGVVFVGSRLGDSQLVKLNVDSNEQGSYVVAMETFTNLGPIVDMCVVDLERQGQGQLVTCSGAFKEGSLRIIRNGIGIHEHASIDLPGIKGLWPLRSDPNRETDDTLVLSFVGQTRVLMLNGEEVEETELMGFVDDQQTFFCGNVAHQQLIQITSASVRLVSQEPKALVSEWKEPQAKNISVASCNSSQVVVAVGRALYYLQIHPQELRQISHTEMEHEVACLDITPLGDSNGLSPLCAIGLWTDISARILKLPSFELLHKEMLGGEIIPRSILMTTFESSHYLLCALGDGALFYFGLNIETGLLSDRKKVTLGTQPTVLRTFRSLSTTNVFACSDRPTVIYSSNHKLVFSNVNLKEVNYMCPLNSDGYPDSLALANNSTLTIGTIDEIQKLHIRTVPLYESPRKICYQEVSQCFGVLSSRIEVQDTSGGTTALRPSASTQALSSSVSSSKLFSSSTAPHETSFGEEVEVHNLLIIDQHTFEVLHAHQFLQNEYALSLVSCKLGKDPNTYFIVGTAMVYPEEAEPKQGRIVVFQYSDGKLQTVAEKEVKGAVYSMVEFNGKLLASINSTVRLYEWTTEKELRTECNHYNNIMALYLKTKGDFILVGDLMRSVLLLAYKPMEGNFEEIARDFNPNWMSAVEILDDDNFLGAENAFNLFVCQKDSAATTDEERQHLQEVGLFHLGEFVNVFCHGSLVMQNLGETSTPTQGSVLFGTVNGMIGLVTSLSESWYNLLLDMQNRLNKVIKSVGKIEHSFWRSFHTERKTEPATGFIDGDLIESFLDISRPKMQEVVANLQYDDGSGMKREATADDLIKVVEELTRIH
- assay: GSPT1 HiBit degradation assay
- Assay type: cell-based
- condition-label: Table 3A; HEK293 LgBiT cells expressing GSPT1_HiBiT, luminescence after 6 hours
- Text: Promega developed a HEK293 cell line that constitutively expresses LgBiT protein and GSPT1_HiBiT fusion protein. […] Endurazine, a cell permeable small molecule, is converted by cellular esterases into furimazine, which the luciferase enzyme uses as a substrate to generate luminescence. […] This prevents formation of fully functional luciferase, leading to a loss in luminescence. GSPT1 degradation therefore correlates with a decrease in luminescence and can be measured continuously over time. […]
outcome-measure: DC50

Illustrative cases are given below, each with its answer.
COc1cc(N2CCN(C(=O)COCCOCCOCCCCCc3cc(Cl)cc(NC(=O)NCc4ccc5c(c4)CN(C4CCC(=O)NC4=O)C5=O)c3)CC2)ccc1Nc1ncc(Cl)c(Nc2ccccc2P(C)(C)=O)n1 (stereo not shown); < 250 nM
C=CC(=O)NC1CN(c2nc(Nc3cn(CCOCCOCCOCCOCCOCCOCCOCCOCCOCCCCCc4cc(Cl)cc(NC(=O)NCc5ccc6c(c5)CN(C5CCC(=O)NC5=O)C6=O)c4)nc3OC)c3ncn(C)c3n2)C[C@H]1F (stereo partly shown); 250 to 5000 nM

Sure, the documented DC50 for CN(C/C=C/C(=O)N1CCN(c2nc(OC[C@H]3CCCN3C)nc3c2CCN(c2cccc4cccc(Cl)c24)C3)C[C@@H]1CC#N)CCOCCOCCOCCOCCOCCOCCOCCOCCCCCCCCc1cc(Cl)cc(NC(=O)NCc2ccc3c(c2)CN(C2CCC(=O)NC2=O)C3=O)c1 (stereo partly shown) is 250 to 5000 nM

Sure, the documented DC50 for CCN(CCOCCOCCOCCOCCCCCCCCc1cc(Cl)cc(NC(=O)NCc2ccc3c(c2)CN(C2CCC(=O)NC2=O)C3=O)c1)CCOc1ccc(C(=O)c2c(-c3ccc(O)cc3)sc3cc(O)ccc23)cc1 (stereo not shown) is < 250 nM
